target: EGFR del19/C797S (Homo sapiens, UniProt P00533, C797S/DEL746-750); assay: Biochemical EGFR kinase assay (Lance Ultra TR-FRET), double mutant del19/C797S; conditions: IC50 del19/C797S (nM) 100 μM ATP, 100 μM ATP
Sequence (P00533 with tags, fused parts or gaps DEL746-750/C797S): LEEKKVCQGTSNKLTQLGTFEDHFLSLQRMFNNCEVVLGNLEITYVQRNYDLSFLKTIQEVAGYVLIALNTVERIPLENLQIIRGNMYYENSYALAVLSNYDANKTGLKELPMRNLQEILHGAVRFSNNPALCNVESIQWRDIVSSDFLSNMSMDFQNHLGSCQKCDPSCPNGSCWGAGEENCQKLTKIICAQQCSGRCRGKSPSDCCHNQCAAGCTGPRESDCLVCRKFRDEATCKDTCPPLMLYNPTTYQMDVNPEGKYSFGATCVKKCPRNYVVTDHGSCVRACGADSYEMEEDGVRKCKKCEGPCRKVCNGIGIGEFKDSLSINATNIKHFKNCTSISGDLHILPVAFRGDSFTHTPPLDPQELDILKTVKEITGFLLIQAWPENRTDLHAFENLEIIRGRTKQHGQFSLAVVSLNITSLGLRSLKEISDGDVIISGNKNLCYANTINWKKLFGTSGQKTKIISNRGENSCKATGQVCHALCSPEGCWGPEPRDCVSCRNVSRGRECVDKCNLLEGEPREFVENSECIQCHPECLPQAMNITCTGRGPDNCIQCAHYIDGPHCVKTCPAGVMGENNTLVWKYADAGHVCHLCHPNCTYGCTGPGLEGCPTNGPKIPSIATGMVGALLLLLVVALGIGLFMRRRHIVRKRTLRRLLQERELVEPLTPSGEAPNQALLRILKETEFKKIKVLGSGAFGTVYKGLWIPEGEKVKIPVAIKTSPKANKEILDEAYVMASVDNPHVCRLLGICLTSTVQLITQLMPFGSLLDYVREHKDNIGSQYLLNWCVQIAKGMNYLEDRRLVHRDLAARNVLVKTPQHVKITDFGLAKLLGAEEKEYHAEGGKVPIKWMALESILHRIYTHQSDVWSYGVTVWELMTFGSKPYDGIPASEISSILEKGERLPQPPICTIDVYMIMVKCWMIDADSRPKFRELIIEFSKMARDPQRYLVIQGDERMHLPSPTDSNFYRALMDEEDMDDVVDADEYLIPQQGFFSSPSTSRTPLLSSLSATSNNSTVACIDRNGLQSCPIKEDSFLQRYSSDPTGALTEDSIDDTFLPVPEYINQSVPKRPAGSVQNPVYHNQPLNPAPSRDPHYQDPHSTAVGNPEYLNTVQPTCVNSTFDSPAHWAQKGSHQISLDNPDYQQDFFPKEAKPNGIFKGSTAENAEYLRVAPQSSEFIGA
Simple rule here: IC50 less than 3 nM is TRUE, otherwise FALSE.

>>> cat("Cn1ccc(-c2cnc(Nc3ccnc(-c4cnn(S(=O)(=O)C5CC5)c4)n3)cc2N[C@H]2CC[C@H](CO)OC2)n1")
"FALSE"
>>> cat("CC(C)c1cc(-c2cnc(Nc3ccnc(-c4cnn(S(=O)(=O)C5CC5)c4)n3)cc2N[C@H]2CC[C@@](C)(O)CC2)on1")
"FALSE"
>>> cat("Cc1ncc(-c2cnc(Nc3ccnc(-c4cnn(S(=O)(=O)C5CC5)c4)n3)cc2N2CCC(O)CC2)s1")
"FALSE"
>>> cat("COCn1cc(-c2nccc(Nc3cc(N[C@H]4CC[C@@](C)(O)CC4)c(-c4ccn(C(F)F)n4)cn3)n2)cn1")
"FALSE"
>>> cat("O=S(=O)(C1CC1)n1cc(-c2nccc(Nc3cc(N[C@H]4CC[C@@H](CN5CCC5)CC4)c(-c4ccn(CC(F)(F)F)n4)cn3)n2)cn1")
"TRUE"
>>> cat("O=S(=O)(C1CC1)n1cc(-c2nccc(Nc3cc(N[C@H]4CC[C@@H](CO)CC4)c(-c4ccn(C5CC5)n4)cn3)n2)cn1")
"TRUE"

---

molecular target: EGFR del19/C797S (Homo sapiens, UniProt P00533, C797S/DEL746-750); assay: Biochemical EGFR kinase assay (Lance Ultra TR-FRET), double mutant del19/C797S; conditions: IC50 del19/C797S (nM) 100 μM ATP, 100 μM ATP
Catalogue of IC50 readings, one per entry.
recorded metric: IC50

>>> assay_result("C[C@]1(O)CC[C@@H](Nc2cc(Nc3ccnc(-c4ccc(F)nc4)n3)ncc2-c2ccn(C(F)F)n2)CC1")
"606 nM"
>>> assay_result("C[C@]1(O)CC[C@@H](Nc2cc(Nc3ccnc(-c4cnn(S(=O)(=O)C5CC5)c4)n3)ncc2-c2ccn(CC(F)F)n2)CC1")
"0.5 nM"
>>> assay_result("O=S(=O)(C1CC1)n1cc(-c2nccc(Nc3cc(N[C@H]4CC[C@H](CCO)CC4)c(-c4ccn(CC(F)(F)F)n4)cn3)n2)cn1")
"2700 nM"

---

target: EGFR del19/C797S (Homo sapiens, UniProt P00533, C797S/DEL746-750); assay: Biochemical EGFR kinase assay (Lance Ultra TR-FRET), double mutant del19/C797S; conditions: Km ATP; read-out: IC50 del19/C797S, Km ATP
Simple rule here: IC50 less than 40 nM is Yes, otherwise No.

>>> cat("Cc1nn(CC(F)(F)F)cc1-c1nccc(Nc2cc(N[C@H]3CC[C@@](C)(O)CC3)c(-c3ccn(CC(F)F)n3)cn2)n1")
"Yes"
>>> cat("CC1(O)CCC(Nc2cc(Nc3ccnc(N4CCC(F)(F)C(O)C4)n3)ncc2-c2ccn(C(F)F)n2)CC1 (stereo not drawn)")
"No"
>>> cat("CC(C)(O)[C@H]1CC[C@@H](Nc2nc(Nc3ccnc(-c4cnn(S(=O)(=O)C5CC5)c4)c3)ncc2-c2ccn(C(F)F)n2)CC1")
"No"
>>> cat("C[C@]1(O)CC[C@@H](Nc2nc(Nc3ccnc(-c4cnn(CC(F)F)c4)c3)ncc2-c2ccn(C(F)F)n2)CC1")
"Yes"
>>> cat("Cc1nn(CC(F)(F)F)cc1-c1nccc(Nc2cc(N[C@H]3CC[C@@](C)(O)CC3)c(-c3ccn(C(F)F)n3)nn2)n1")
"No"
>>> cat("Cc1nn(CC(F)(F)F)cc1-c1nccc(Nc2cc(N[C@H]3CC[C@@H](CCO)CC3)c(-c3cc(C(F)(F)F)n(C)n3)cn2)n1")
"No"
